assay: Cytotoxicity against CHO cells assessed as cell viability at 100 ug/mL after 48 hrs by MTT assay relative to control; format: cell-based, Cricetulus griseus; settings: chinese hamster, read-out: Activity
Endpoint label: viability at 48 h, 100 ug/mL (%)

1. Cc1c(C(=O)/C=C(\O)C(=O)N[C@H](C)C(=O)O)oc2ccc(Br)cc12 70
2. COC(=O)[C@@H](C)NC(=O)/C(O)=C/C(=O)c1oc2ccc(Br)cc2c1C 50

====

Documented MIC across a set of compounds
system: Pseudomonas aeruginosa; experiment: Antibacterial activity against Pseudomonas aeruginosa MTCC 2453 after 24 hrs by broth dilution assay; format: functional; conditions: MTCC 2453, 24 h
Endpoint label: MIC (µg/mL)

1) CCOC(=O)/C(O)=C/C(=O)c1oc2ccc(Br)cc2c1C 1000
2) COC(=O)[C@@H](C)NC(=O)/C(O)=C/C(=O)c1oc2ccc(Br)cc2c1C 125
3) CCOC(=O)c1cc(-c2ccc(Cl)cc2)no1 500
4) Cc1ccccc1C(=O)/C=C(\O)C(=O)O 1000
5) Cc1c(-c2cc(C(=O)N[C@H](C)C(=O)O)on2)oc2ccc(Br)cc12 1000
6) Cc1ccccc1C(=O)/C=C(\O)C(=O)N[C@H](C)C(=O)O 1000
7) Cc1c(C(=O)/C=C(\O)C(=O)N[C@H](C)C(=O)O)oc2ccc(Br)cc12 250
8) CCOC(=O)/C(O)=C/C(=O)c1ccc(Cl)cc1 500
9) COC(=O)[C@@H](C)NC(=O)/C(O)=C/C(=O)c1ccccc1C 1000
10) Cc1c(C(=O)/C=C(\O)C(=O)O)oc2ccc(Br)cc12 125
11) CCOC(=O)/C(O)=C/C(=O)c1ccccc1C 1000

====

Documented MIC across a set of compounds
test system: Streptococcus pneumoniae; test: Antibacterial activity against Streptococcus pneumoniae MTCC 655 after 24 hrs by broth dilution assay; type: functional; details: MTCC 655, 24 h
Endpoint label: MIC (µg/mL)

1. O=C(O)c1cn(C2CC2)c2cc(N3CCNCC3)c(F)cc2c1=O 0.312
2. CCOC(=O)/C(O)=C/C(=O)c1ccccc1C 250
3. Cc1ccccc1C(=O)/C=C(\O)C(=O)N[C@H](C)C(=O)O 500
4. CCOC(=O)/C(O)=C/C(=O)c1ccc(Cl)cc1 500
5. COC(=O)[C@@H](C)NC(=O)/C(O)=C/C(=O)c1ccccc1C 125
6. Cc1c(C(=O)/C=C(\O)C(=O)N[C@H](C)C(=O)O)oc2ccc(Br)cc12 62.5

====

species: Homo sapiens; assay: Inhibition of human methionine aminopeptidase 1B at 100 uM using Met-AMC as substrate relative to control
Hi, to clarify the labels: Fulfilled covers inhibition from 60% upward, Not fulfilled covers anything below 60%.

1. Cc1ccccc1-c1cc(C(=O)N[C@H](C)C(=O)O)on1 Not fulfilled
2. Cc1c(-c2cc(C(=O)N[C@H](C)C(=O)O)on2)oc2ccc(Br)cc12 Fulfilled
3. Cc1c(-c2cc(C(=O)O)on2)oc2ccc(Br)cc12 Not fulfilled
4. Cc1c(C(=O)/C=C(\O)C(=O)O)oc2ccc(Br)cc12 Fulfilled
5. Cc1ccccc1-c1cc(C(=O)O)on1 Not fulfilled

====

experiment: Inhibition of human methionine aminopeptidase 1B using Met-AMC as substrate by Dixon method
Endpoint label: Ki (µM)

1. CCOC(=O)/C(O)=C/C(=O)c1ccccc1C 74.3
2. COC(=O)[C@@H](C)NC(=O)/C(O)=C/C(=O)c1oc2ccc(Br)cc2c1C 22.1
3. Cc1ccccc1C(=O)/C=C(\O)C(=O)O 73.8
4. CCOC(=O)/C(O)=C/C(=O)c1ccc(Cl)cc1 56.1
5. Cc1ccccc1C(=O)/C=C(\O)C(=O)N[C@H](C)C(=O)O 54
6. Cc1c(-c2cc(C(=O)N[C@H](C)C(=O)O)on2)oc2ccc(Br)cc12 3.11
7. COC(=O)[C@@H](C)NC(=O)c1cc(-c2ccccc2C)no1 137
8. Cc1ccccc1-c1cc(C(=O)O)on1 104
9. Cc1ccccc1-c1cc(C(=O)N[C@H](C)C(=O)O)on1 86.9

====

test system: Klebsiella pneumoniae; assay: Antibacterial activity against Klebsiella pneumoniae ATCC 700603 after 24 hrs by broth dilution assay; type: functional; conditions: Klebsiella pneumoniae, 700603, 24 h
Endpoint label: MIC (µg/mL)

1. COC(=O)[C@@H](C)NC(=O)/C(O)=C/C(=O)c1oc2ccc(Br)cc2c1C 500
2. Cc1ccccc1C(=O)/C=C(\O)C(=O)N[C@H](C)C(=O)O 1000
3. Cc1c(C(=O)/C=C(\O)C(=O)N[C@H](C)C(=O)O)oc2ccc(Br)cc12 500
4. O=C(O)c1cn(C2CC2)c2cc(N3CCNCC3)c(F)cc2c1=O 0.25

====

test system: Streptococcus pneumoniae; assay: Antibacterial activity against Streptococcus pneumoniae MTCC 655 after 24 hrs by broth dilution assay; format: functional; conditions: MTCC 655, 24 h
Endpoint label: MIC (µg/mL)

1. CCOC(=O)/C(O)=C/C(=O)c1oc2ccc(Br)cc2c1C 250
2. COC(=O)[C@@H](C)NC(=O)/C(O)=C/C(=O)c1oc2ccc(Br)cc2c1C 62.5
3. Cc1c(C(=O)/C=C(\O)C(=O)O)oc2ccc(Br)cc12 62.5
4. Cc1ccccc1C(=O)/C=C(\O)C(=O)O 500
5. Cc1c(-c2cc(C(=O)N[C@H](C)C(=O)O)on2)oc2ccc(Br)cc12 250
6. CCOC(=O)c1cc(-c2ccc(Cl)cc2)no1 1000

====

species on record: Homo sapiens; assay: Inhibition of human methionine aminopeptidase 1B at 100 uM using Met-AMC as substrate relative to control
Endpoint label: inhibition (%)

1. Cc1ccccc1C(=O)/C=C(\O)C(=O)N[C@H](C)C(=O)O 59.2
2. CCOC(=O)c1cc(-c2ccc(Cl)cc2)no1 66.3
3. CCOC(=O)c1cc(-c2ccccc2C)no1 48.9
4. C[C@@H](NC(=O)c1cc(-c2ccc(Cl)cc2)no1)C(=O)O 47.2
5. CCOC(=O)/C(O)=C/C(=O)c1ccccc1C 61.4
6. COC(=O)[C@@H](C)NC(=O)/C(O)=C/C(=O)c1oc2ccc(Br)cc2c1C 89.1
7. Cc1c(C(=O)/C=C(\O)C(=O)N[C@H](C)C(=O)O)oc2ccc(Br)cc12 87.5
8. COC(=O)[C@@H](C)NC(=O)/C(O)=C/C(=O)c1ccccc1C 51.9
9. Cc1ccccc1C(=O)/C=C(\O)C(=O)O 52.3
10. COC(=O)[C@@H](C)NC(=O)c1cc(-c2ccccc2C)no1 51.1
11. COC(=O)[C@@H](C)NC(=O)c1cc(-c2ccc(Cl)cc2)no1 43.1
12. O=C(O)c1cc(-c2ccc(Cl)cc2)no1 43.9
13. CCOC(=O)c1cc(-c2oc3ccc(Br)cc3c2C)no1 43.6
14. COC(=O)[C@@H](C)NC(=O)c1cc(-c2oc3ccc(Br)cc3c2C)no1 45.1
15. CCOC(=O)/C(O)=C/C(=O)c1oc2ccc(Br)cc2c1C 86

====

test: Inhibition of human methionine aminopeptidase 1B using Met-AMC as substrate by Dixon method
The label Yes is reserved for Ki strictly under 100 µM; No covers values equal to or above it.

1. Cc1c(C(=O)/C=C(\O)C(=O)O)oc2ccc(Br)cc12 Yes
2. Cc1c(C(=O)/C=C(\O)C(=O)N[C@H](C)C(=O)O)oc2ccc(Br)cc12 Yes
3. CCOC(=O)c1cc(-c2ccc(Cl)cc2)no1 No
4. CCOC(=O)c1cc(-c2ccccc2C)no1 No
5. COC(=O)[C@@H](C)NC(=O)/C(O)=C/C(=O)c1ccccc1C No
6. CCOC(=O)/C(O)=C/C(=O)c1oc2ccc(Br)cc2c1C Yes

====

tested on: Streptococcus pneumoniae; assay: Inhibition of Streptococcus pneumoniae methionine aminopeptidase 1A at 100 uM using Met-AMC as substrate relative to control
Documented inhibition across a set of compounds
Endpoint label: inhibition (%)

1. Cc1c(-c2cc(C(=O)O)on2)oc2ccc(Br)cc12 43.2
2. COC(=O)[C@@H](C)NC(=O)c1cc(-c2ccccc2C)no1 37
3. O=C(O)c1cc(-c2ccc(Cl)cc2)no1 39.7
4. COC(=O)[C@@H](C)NC(=O)c1cc(-c2ccc(Cl)cc2)no1 43.8
5. CCOC(=O)/C(O)=C/C(=O)c1ccc(Cl)cc1 55.3
6. CCOC(=O)c1cc(-c2ccc(Cl)cc2)no1 40.3
7. Cc1ccccc1C(=O)/C=C(\O)C(=O)O 62.8
8. Cc1c(C(=O)/C=C(\O)C(=O)O)oc2ccc(Br)cc12 93.4
9. Cc1c(-c2cc(C(=O)N[C@H](C)C(=O)O)on2)oc2ccc(Br)cc12 42.8
10. CCOC(=O)c1cc(-c2oc3ccc(Br)cc3c2C)no1 40.6
11. Cc1ccccc1-c1cc(C(=O)O)on1 42.4
12. Cc1c(C(=O)/C=C(\O)C(=O)N[C@H](C)C(=O)O)oc2ccc(Br)cc12 98.2
13. Cc1ccccc1-c1cc(C(=O)N[C@H](C)C(=O)O)on1 44.6
14. COC(=O)[C@@H](C)NC(=O)/C(O)=C/C(=O)c1oc2ccc(Br)cc2c1C 97.4
15. COC(=O)[C@@H](C)NC(=O)/C(O)=C/C(=O)c1ccccc1C 57
16. C[C@@H](NC(=O)c1cc(-c2ccc(Cl)cc2)no1)C(=O)O 43.7
17. COC(=O)[C@@H](C)NC(=O)c1cc(-c2oc3ccc(Br)cc3c2C)no1 36.5
18. Cc1ccccc1C(=O)/C=C(\O)C(=O)N[C@H](C)C(=O)O 58
19. CCOC(=O)/C(O)=C/C(=O)c1ccccc1C 50.3
20. CCOC(=O)/C(O)=C/C(=O)c1oc2ccc(Br)cc2c1C 73
21. CCOC(=O)c1cc(-c2ccccc2C)no1 41.4
